- target-or-test-system: Human M3 receptor (Homo sapiens, UniProt P20309)
- Construct: purchased Perkin Elmer
- Sequence (P20309 whole entry): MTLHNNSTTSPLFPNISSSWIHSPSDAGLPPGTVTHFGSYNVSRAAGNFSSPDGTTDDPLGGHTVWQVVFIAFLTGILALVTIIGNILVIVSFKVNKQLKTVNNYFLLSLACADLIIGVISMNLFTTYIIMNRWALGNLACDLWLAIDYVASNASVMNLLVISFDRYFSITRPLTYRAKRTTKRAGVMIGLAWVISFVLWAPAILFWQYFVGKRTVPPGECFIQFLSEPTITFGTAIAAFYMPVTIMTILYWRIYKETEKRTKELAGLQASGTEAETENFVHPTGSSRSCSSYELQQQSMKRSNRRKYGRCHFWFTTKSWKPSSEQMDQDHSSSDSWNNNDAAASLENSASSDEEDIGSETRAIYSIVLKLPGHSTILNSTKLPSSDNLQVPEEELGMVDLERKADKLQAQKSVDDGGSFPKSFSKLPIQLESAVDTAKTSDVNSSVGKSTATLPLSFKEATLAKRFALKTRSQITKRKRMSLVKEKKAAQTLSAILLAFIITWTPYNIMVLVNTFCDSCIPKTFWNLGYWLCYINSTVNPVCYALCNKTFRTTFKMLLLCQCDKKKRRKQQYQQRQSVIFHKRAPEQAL
- experimental-protocol: biochemical
- Format: binding
- condition-parameters: read-out: M3 Range
pIC50: −log10 of the molar value.
I'd be grateful if you could share measured pIC50 for these entries.

**Q:** I am curious: what pIC50 value has been reported for `C[C@H](NC(=O)c1ccc(CNC[C@H](O)c2ccc(O)c3[nH]c(=O)ccc23)cc1)C(=O)N1CC=C(c2cccc([C@](O)(C(=O)OCC3CCN(Cc4ccccc4)CC3)c3ccccc3)c2)CC1` ?
**A:** 8.52 to 9.52

**Q:** Check `O=C(c1cncc(-c2cccc([C@](O)(C(=O)OCC3CCN(Cc4ccccc4)CC3)c3ccccc3)c2)c1)N1CCC(CNC[C@H](O)c2ccc(O)c3[nH]c(=O)ccc23)CC1` too.
**A:** 8.52 to 9.52

**Q:** Moving on to the next compound: COc1cc(C(=O)NCc2cc(-c3ccc([C@](O)(C(=O)OCC4CCN(Cc5ccccc5)CC4)c4ccccc4)cc3)cs2)ccc1CNC[C@H](O)c1ccc(O)c2[nH]c(=O)ccc12 [Compound 15F]
**A:** 8.52 to 9.52

Source listed as patent US10196386B2.
